Recorded values, source patent US20260176253A1.

Assay System: 5-HT2A (Homo sapiens, UniProt P28223)
Sequence (P28223 whole entry): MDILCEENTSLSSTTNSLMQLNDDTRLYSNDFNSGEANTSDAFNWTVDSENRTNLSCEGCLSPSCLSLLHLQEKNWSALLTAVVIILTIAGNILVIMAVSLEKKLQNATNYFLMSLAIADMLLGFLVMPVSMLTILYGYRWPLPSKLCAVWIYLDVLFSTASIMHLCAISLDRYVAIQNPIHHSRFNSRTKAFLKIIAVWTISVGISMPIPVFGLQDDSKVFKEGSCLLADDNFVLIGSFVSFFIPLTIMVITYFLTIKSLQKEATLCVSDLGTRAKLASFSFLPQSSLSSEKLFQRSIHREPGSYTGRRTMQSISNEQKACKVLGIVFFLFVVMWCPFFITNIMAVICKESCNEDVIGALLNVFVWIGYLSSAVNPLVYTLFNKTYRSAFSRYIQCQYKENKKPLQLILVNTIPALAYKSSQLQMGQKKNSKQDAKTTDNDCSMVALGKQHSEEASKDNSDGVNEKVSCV
Assay Protocol: Serotonin 5-HT2A in vitro radioligand binding competition assay ([3H]-DOI)
Design: purchased Epics Therapeutics S. A. (Belgium), contract assay FAST-0505B; host or cells: membrane extracts
Applied Conditions: [3H]-DOI competition, membrane extracts; read-out: 5HT2A R[…] ACTIVITY
pIC50: −log10 of the molar value.
Result Type: pIC50

Below, 4 compounds whose answers are already recorded.
>  <Compound>
COc1ccc2c3c([nH]c2c1)C[C@@H]1CCCN1CC3

>  <pIC50>
< 5.00

$$$$
>  <Compound>
COc1cccc2[nH]c3c(c12)C[C@H]1CCCN1CC3

>  <pIC50>
6.00 to 7.00

$$$$
>  <Compound>
c1ccc2c3c([nH]c2c1)CC1CCCN1CC3 (stereo not drawn)

>  <pIC50>
6.00 to 7.00

$$$$
>  <Compound>
c1ccc2c3c([nH]c2c1)C[C@H]1CCCN1CC3

>  <pIC50>
6.00 to 7.00

$$$$

Record pIC50 per entry; entries follow.
1. COc1cccc2[nH]c3c(c12)C[C@@H]1CCCN1CC3
2. FC(F)(F)c1ccc2c3c([nH]c2c1)CC1CCCN1CC3 (stereo not drawn)

Data returned:
1: 7.00 to 8.00; 2: 5.00 to 6.00
